# protocol_text: Solubility in toluene
# Type: physicochemical
# conditions: organic solvent or mixture, thermodynamic from solid; 20 mg compound mixed with toluene (1 mL)
Known solubility of a selection of compounds
quantity_name: solubility

[
  {
    "compound": "CC(C)CCCC(C)CCc1cc2sc3cc4sc5cc(CCC(C)CCCC(C)C)sc5c4cc3c2s1 (stereo not drawn) [Compound 31]",
    "result": "> 20 mg/mL"
  },
  {
    "compound": "CCc1cc2sc3cc4sc5cc(CC)sc5c4cc3c2s1 [Comparative compound 1, reference compound]",
    "result": "< 20 mg/mL"
  },
  {
    "compound": "CC(C)CCCC(C)CCc1ccc(-c2cc3sc4cc5sc6cc(-c7ccc(CCC(C)CCCC(C)C)s7)sc6c5cc4c3s2)s1 (stereo not drawn) [Compound 33]",
    "result": "> 20 mg/mL"
  }
]
